Data origin, for the record: the supplement of paper PMC12645437

# tested-system: T1, CRBN, Q96SW2;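 further: pooled lentiviral library of zinc finger degron-EGFP fusions in mCherry-positive Jurkat cells, FACS-sorted after compound exposure, with degron abundance counted by next-generation sequencing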
# T1 chain: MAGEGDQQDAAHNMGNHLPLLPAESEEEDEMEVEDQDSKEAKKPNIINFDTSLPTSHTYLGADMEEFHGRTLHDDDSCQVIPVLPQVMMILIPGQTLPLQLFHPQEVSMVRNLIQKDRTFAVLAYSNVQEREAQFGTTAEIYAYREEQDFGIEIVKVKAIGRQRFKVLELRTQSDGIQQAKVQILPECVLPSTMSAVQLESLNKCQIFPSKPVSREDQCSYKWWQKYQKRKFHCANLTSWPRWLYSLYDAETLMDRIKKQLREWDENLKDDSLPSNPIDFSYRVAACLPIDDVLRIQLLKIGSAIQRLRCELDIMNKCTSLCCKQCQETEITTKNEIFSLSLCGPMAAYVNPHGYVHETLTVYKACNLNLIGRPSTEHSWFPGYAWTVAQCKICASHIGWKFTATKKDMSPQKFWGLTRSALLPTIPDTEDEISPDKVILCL
# experiment-summary: log2 fold change of degron read counts, EGFP-low vs EGFP+ sorted cells (limma voom), compound-induced degradation; higher = more compound-induced degradation of the degron-EGFP fusion; degrons are variants of IKZF1/3 zinc finger 2; compound dose not given here
# experimental-conditions: Jurkat; 18 h; compound: compound 22 (5-morpholino-thalidomide)
Over roughly 8,300 sequences, “log2 fold change of degron read counts, EGFP-low vs EGFP+ sorted cells (limma voom), compound-induced degradation” has its median near -1.1; the highest 2% begin near 3.2. The sample holds the highest values, similar sequences and a random draw of the others, so the mix is not that of the screen.

{"ordered-residues": "FFCDICGADFTQKGNLLRHIKL [46F_47F_49D_50I_52G_53A_54D_55F_67L_, Q9UKT9]", "log2 fold change of degron read counts": -0.935}
{"ordered-residues": "FICEICGARFTQKGNLLRHIKL [46F_47I_49E_50I_52G_53A_54R_55F_67L_, Q9UKT9]", "log2 fold change of degron read counts": 2.66}
{"ordered-residues": "FYCEICGARFTQKGNLLRHIKL [46F_47Y_49E_50I_52G_53A_54R_55F_67L_, Q9UKT9]", "log2 fold change of degron read counts": 3.37}
{"ordered-residues": "FACEICGARFTQKGNLLRHIKL [46F_47A_49E_50I_52G_53A_54R_55F_67L_, Q9UKT9]", "log2 fold change of degron read counts": 2.89}
{"ordered-residues": "FFCDICGAPFTQKGNLLRHIKL [46F_47F_49D_50I_52G_53A_54P_55F_67L_, Q9UKT9]", "log2 fold change of degron read counts": 3.16}
{"ordered-residues": "FQCEICGARFTQKGNLLRHIKL [46F_47Q_49E_50I_52G_53A_54R_55F_67L_, Q9UKT9]", "log2 fold change of degron read counts": 2.1}
{"ordered-residues": "FHCEICGARFTQKGNLLRHIKL [46F_47H_49E_50I_52G_53A_54R_55F_67L_, Q9UKT9]", "log2 fold change of degron read counts": 2.42}
